These entries and their values trace back to ChEMBL document CHEMBL4689842.

Test system: Fibroblast
test-protocol: Multiplex assay against human fibroblast
Format: toxicity, cell-based
setup-conditions: 48 h, 10 µM, compound concentration 10 uM, replicate 1
property: Population Normal (%)
Only the number, expressed in %, is required.

molecule=C1=N/C2=N/c3ccc(OCCN4CCCC4)c(c3)COC/C=C\COCc3cccc(c3)C(=C1)N2 unit=% observed_measurement=79
molecule="CCn1c(-c2nonc2N)nc2cnc(Oc3cccc(NC(=O)c4ccc(OCCN5CCOCC5)cc4)c3)cc21 [GSK-269962A]" unit=% observed_measurement=79
molecule=Nc1ccc(C(=O)Nc2cccc(-c3nc(N4CCOCC4)c4oc5ncccc5c4n3)c2)cn1 unit=% observed_measurement=50
molecule=COc1ccc(NS(=O)(=O)c2sc3ccc(Cl)cc3c2C)cc1N1CCNCC1.Cl unit=% observed_measurement=57

Now let's try a different one.
Problem: Name the recorded Population Normal (%) for CC(=O)c1cc(-c2cc(C(=O)NC3CC3)ccc2C)c2ncccn12 .
Result: 82
